Assayed System: HIV-1 94UG103 Env (HIV-1 strain 94UG103)
Protocol Description: cell-based or functional assay
Assay Readout: IC50 neutralization, 1 hour virus/Ab incubation

Binder | Result
1495_C14 (PGC14) (antibody, human IgG1, lambda, V domains shown) VH: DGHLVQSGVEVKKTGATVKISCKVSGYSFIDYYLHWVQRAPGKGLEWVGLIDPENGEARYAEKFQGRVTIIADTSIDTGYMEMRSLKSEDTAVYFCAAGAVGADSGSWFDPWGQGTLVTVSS VL: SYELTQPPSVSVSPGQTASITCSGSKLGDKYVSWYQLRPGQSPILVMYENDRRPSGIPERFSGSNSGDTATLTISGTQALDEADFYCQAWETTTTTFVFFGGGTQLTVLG | > 50 µg/mL
